For each of the molecules below, state its Ki.
testedSystem: hsst3 (Homo sapiens, UniProt P32745)
Construct: expressed in transfected cells
Sequence (P32745 whole entry): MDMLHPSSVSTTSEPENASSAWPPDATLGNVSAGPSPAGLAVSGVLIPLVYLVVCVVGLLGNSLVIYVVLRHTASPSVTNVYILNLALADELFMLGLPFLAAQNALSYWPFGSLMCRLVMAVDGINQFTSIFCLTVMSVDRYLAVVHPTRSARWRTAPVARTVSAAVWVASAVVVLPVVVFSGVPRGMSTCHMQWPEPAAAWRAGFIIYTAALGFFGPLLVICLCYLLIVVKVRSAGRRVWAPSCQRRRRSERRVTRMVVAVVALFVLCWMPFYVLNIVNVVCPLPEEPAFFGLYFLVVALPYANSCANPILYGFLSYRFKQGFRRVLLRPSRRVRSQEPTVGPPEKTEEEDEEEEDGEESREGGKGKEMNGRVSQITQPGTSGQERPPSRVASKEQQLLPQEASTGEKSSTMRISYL
assayText: Somatostatin receptor radioligand binding assay, hsst3
conditionSet: CHO-K1 membranes, [125I-Tyr11]SS-14; read-out: hsst3 Ki
One number for each entry, in µM.

# structureSmiles, unitsSymbol, Ki
rows = [
    ("C=CCN1C[C@H](C(=O)N(CCCN(C)CC(=O)N[C@H](Cc2ccccc2)C(=O)N[C@H]2CSSC[C@@H](C(=O)N[C@H](C(N)=O)[C@@H](C)O)NC(=O)[C@H](CC)NC(=O)[C@H](CCCCN)NC(=O)[C@@H](Cc3c[nH]c4ccccc34)NC(=O)[C@H](Cc3ccc(O)cc3)NC2=O)C(=O)NCC)C[C@@H]2c3cccc4[nH]cc(c34)C[C@H]21", "µM", 0.798),
    ("CCCN1C[C@H](CSCC(=O)N[C@H](Cc2ccccc2)C(=O)N[C@H]2CSSC[C@@H](C(=O)N[C@H](C(N)=O)[C@@H](C)O)NC(=O)[C@H]([C@@H](C)O)NC(=O)[C@H](CCCCN)NC(=O)[C@@H](Cc3c[nH]c4ccccc34)NC(=O)[C@H](Cc3ccc(O)c(I)c3)NC2=O)C[C@@H]2c3cccc4[nH]cc(c34)C[C@H]21", "µM", 0.0515),
]

Enquiry: Give the reported value of Ki for this record: CC[C@@H]1NC(=O)[C@H](CCCCN)NC(=O)[C@@H](Cc2c[nH]c3ccccc23)NC(=O)[C@H](Cc2ccc(O)cc2)NC(=O)[C@@H](NC(=O)[C@@H](Cc2ccccc2)NC(=O)COCCOCCNC(=O)CSC[C@@H]2C[C@@H]3c4cccc5[nH]cc(c45)C[C@H]3N(C)C2)CSSC[C@@H](C(=O)N[C@H](C(N)=O)[C@@H](C)O)NC1=O
Return: 0.0703
